System: DU-145
PROCEDURE TEXT: Cell cycle arrest in human DU145 cells by propidium iodide staining-based flow cytometric method
Format: functional
VALUE KIND: IC50 (µM)
Field: numeric (µM). Do not append units.

(Q) Which IC50 value is on record for `C/C=C/c1ccc(O)c(OC)c1` ?
(A) 33.2

* * *

Tested on: 3LL cell line
PROCEDURE TEXT: Induction of apoptosis in mouse 3LL cells relative to control
Format: functional, cell-based
VALUE KIND: pIC50
API: returns pIC50 as number; meaning -log10 of concentration in mol/L.

(Q) Which pIC50 value is on record for `C/C=C/c1ccc(O)c(OC)c1` ?
(A) 4.05

* * *

Entries and their measured pIC50 follow.
PROCEDURE TEXT: Cytotoxicity against human SW116 cells after 4 hrs by MTT assay
Format: functional, cell-based
CONDITION DESCRIPTION: SW116, 4 h
API: returns pIC50 as number; meaning -log10 of concentration in mol/L.

(Q) Which pIC50 value is on record for `COc1cc(/C=C/C(=O)CC(=O)/C=C/c2ccc(O)c(OC)c2)ccc1O` ?
(A) 4.56

Now for another entry.
(Q) Which pIC50 value is on record for `COc1cc(/C=C/C(=O)C(Cc2ccc(O)c(OC)c2)C(=O)/C=C/c2ccc(O)c(OC)c2)ccc1O` ?
(A) 5.15

* * *

Test system: Colon 26
PROCEDURE TEXT: Cytotoxicity against mouse Colon 26 cells after 4 hrs by MTT assay
Type: functional, cell-based
CONDITION DESCRIPTION: Colon 26, 4 h
VALUE KIND: pIC50
API: returns pIC50 as number; meaning -log10 of concentration in mol/L.

(Q) Which pIC50 value is on record for `COc1cc(/C=C/C(=O)CC(=O)/C=C/c2ccc(O)c(OC)c2)ccc1O` ?
(A) 4.52

* * *

PROCEDURE TEXT: Cytotoxicity against […] cells by MTT assay
Type: functional, cell-based
VALUE KIND: IC50 (µM)
Field: numeric (µM). Do not append units.

(Q) Which IC50 value is on record for `COc1cc(/C=C/C(=O)CC(=O)/C=C/c2ccc(O)c(OC)c2)ccc1O` ?
(A) 8.5

* * *

SYSTEM TESTED: Tubulin
PROCEDURE TEXT: Inhibition of tubulin polymerization (unknown origin)
VALUE KIND: pIC50
API: returns pIC50 as number; meaning -log10 of concentration in mol/L.

(Q) Which pIC50 value is on record for `O=C(/C=C/c1ccccc1)c1ccccc1` ?
(A) 3.21

* * *

Tested on: KB
PROCEDURE TEXT: Cell cycle arrest in human KB cells by propidium iodide staining-based flow cytometric method
Type: functional
VALUE KIND: IC50 (µM)
Field: numeric (µM). Do not append units.

(Q) Which IC50 value is on record for `C/C=C/c1ccc(O)c(OC)c1` ?
(A) 38.6

* * *

System: MCF7
PROCEDURE TEXT: Cell cycle arrest in human MCF7 cells by propidium iodide staining-based flow cytometric method
Format: functional
VALUE KIND: IC50 (µM)
Field: numeric (µM). Do not append units.

(Q) Which IC50 value is on record for `C/C=C/c1ccc(O)c(OC)c1` ?
(A) 40.7

* * *

System: SCC-25
PROCEDURE TEXT: Cytotoxicity against human SCC25 cells after 72 hrs by MTT assay
Type: functional, cell-based
CONDITION DESCRIPTION: SCC-25, 72 h
VALUE KIND: IC50
Show the value, then the unit it is measured in.

(Q) Which IC50 value is on record for `COc1cc(CCC(=O)CCCCc2ccccc2)ccc1O` ?
(A) 18.7 µM

* * *

System: K562
PROCEDURE TEXT: Induction of apoptosis in human K562
Assay type: functional, cell-based
VALUE KIND: pIC50
API: returns pIC50 as number; meaning -log10 of concentration in mol/L.

(Q) What value of pIC50 on K562 does `O=C(/C=C/c1ccccc1)c1ccccc1` have?
(A) 5.37

* * *

System: Caco-2
PROCEDURE TEXT: Cytotoxicity against human Caco2 cells by MTT/SRB assay
Assay type: functional, cell-based
VALUE KIND: IC50

(Q) Which IC50 value is on record for `O=C(/C=C(O)/C=C/c1c[nH]c2ccccc12)/C=C/c1c[nH]c2ccccc12` ?
(A) 3.3 to 12.1 µM

* * *

System: HeLa
PROCEDURE TEXT: Cytotoxicity against human HeLa cells
Assay type: functional, cell-based
VALUE KIND: IC50 (µM)
Field: numeric (µM). Do not append units.

(Q) What value of IC50 on HeLa does `COc1cc(/C=C/C(=O)CC(=O)/C=C/c2ccc(O)c(OC)c2)ccc1O` have?
(A) 8.2

* * *

System: SW480
PROCEDURE TEXT: Cytotoxicity against human SW480 cells after 4 hrs by MTT assay
Format: functional, cell-based
CONDITION DESCRIPTION: SW480, 4 h
VALUE KIND: pIC50
API: returns pIC50 as number; meaning -log10 of concentration in mol/L.

(Q) Which pIC50 value is on record for `COc1cc(/C=C/C(=O)C(Cc2ccc(O)c(OC)c2)C(=O)/C=C/c2ccc(O)c(OC)c2)ccc1O` ?
(A) 5.32

Now for another entry.
(Q) Which pIC50 value is on record for `COc1cc(/C=C/C(=O)CC(=O)/C=C/c2ccc(O)c(OC)c2)ccc1O` ?
(A) 4.75

* * *

PROCEDURE TEXT: Cytotoxicity against […] cells after 72 hrs by MTT assay
Assay type: functional, cell-based
CONDITION DESCRIPTION: B16, 72 h
VALUE KIND: IC50 (µM)
Field: numeric (µM). Do not append units.

(Q) Which IC50 value is on record for `COc1cc(CCC(=O)CCCCc2ccccc2)ccc1O` ?
(A) 40
